- target: human PD-1 (Jurkat-PD-1 cells) / PE-labeled human PD-L1-Ig (Homo sapiens, UniProt Q15116)
- Construct: expressed in transfected cells; host or cells: Jurkat cell line over-expressing human PD-1
- Sequence (Q15116 25-288): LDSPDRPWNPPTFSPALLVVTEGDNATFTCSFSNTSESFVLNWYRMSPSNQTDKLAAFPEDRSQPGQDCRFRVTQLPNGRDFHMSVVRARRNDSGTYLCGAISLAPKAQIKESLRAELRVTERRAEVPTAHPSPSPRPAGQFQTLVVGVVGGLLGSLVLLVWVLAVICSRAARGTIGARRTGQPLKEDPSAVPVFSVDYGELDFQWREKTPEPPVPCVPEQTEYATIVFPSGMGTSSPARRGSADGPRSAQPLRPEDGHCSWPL
- assay.comment: Jurkat-PD-1 Cell Binding High-Content Screening Assay (CBA); Jurkat hPD1-PDL1 assay
- settings: Jurkat cell line over-expressing human PD-1; PE-labeled PD-L1-Ig 20 nM final; compound incubated 2 hours at 37° C.; read-out: Jurkat HPD1-PDL1 IC50
pIC50: −log10 of the molar value. Positions of bridges follow the written chain, without caps; N, C: chain ends. Non-standard residues stand in square brackets, D forms with d. Residues, ends and D or L forms follow the SMILES beside them. Bip = N[C@@H](Cc1ccc(-c2ccccc2)cc1)C(=O)O; NMeF = CN[C@@H](Cc1ccccc1)C(=O)O; NMeA = CN[C@@H](C)C(=O)O; Orn = NCCC[C@H](N)C(=O)O; Dab = NCC[C@H](N)C(=O)O
measure.name: pIC50

{"compound": "CC(C)C[C@@H]1NC(=O)[C@H](CCN)NC(=O)[C@H](Cc2ccccc2)N(C)C(=O)[C@H](C)N(C)C(=O)[C@H](CCC(=O)O)NC(=O)[C@H](Cc2ccc(-c3ccccc3)cc2)NC(=O)[C@H](C(C)C)NC(=O)[C@H](Cc2c[nH]c3ccccc23)NC(=O)[C@H](CC(=O)O)NC(=O)[C@H](Cc2ccc(O)cc2)NC(=O)[C@H](CC(N)=O)NC(=O)CSC[C@@H](C(=O)N[C@@H](C)C(N)=O)NC(=O)[C@H](CCCN)NC(=O)[C@H](C(C)C)NC1=O [Example 1380] ({CH2CO}-NYDWV[Bip]E[NMeA][NMeF][Dab]LV[Orn]CA-NH2; thioether N-14)", "target": "human PD-1 (Jurkat-PD-1 cells) / PE-labeled human PD-L1-Ig (Homo sapiens, UniProt Q15116)", "measure.name": "pIC50", "reported.measurement": 7.15}

====

Each entry below carries its reported IC50.
- target: human PD-1 (Jurkat-PD-1 cells) / PE-labeled human PD-L1-Ig (Homo sapiens, UniProt Q15116)
- Construct: expressed in transfected cells; host or cells: Jurkat cell line over-expressing human PD-1
- assay.comment: Jurkat-PD-1 Cell Binding High-Content Screening Assay (CBA); Jurkat hPD1-PDL1 assay
- settings: Jurkat cell line over-expressing human PD-1; PE-labeled PD-L1-Ig 20 nM final; compound incubated 2 hours at 37° C.; read-out: Jurkat HPD1-PDL1 IC50
Positions of bridges follow the written chain, without caps; N, C: chain ends. Non-standard residues stand in square brackets, D forms with d. Residues, ends and D or L forms follow the SMILES beside them. Bip = N[C@@H](Cc1ccc(-c2ccccc2)cc1)C(=O)O; NMeF = CN[C@@H](Cc1ccccc1)C(=O)O; Cit = NC(=O)NCCC[C@H](N)C(=O)O; NMeA = CN[C@@H](C)C(=O)O; Orn = NCCC[C@H](N)C(=O)O; Ac3c = NC1(C(=O)O)CC1; Sar = CNCC(=O)O
measure.name: IC50 (µM)

{"compound": "CC(C)C[C@@H]1NC(=O)[C@H](CCCNC(=N)N)NC(=O)[C@H](Cc2ccccc2)N(C)C(=O)[C@H](C)N(C)C(=O)[C@H](CCCN)NC(=O)[C@H](Cc2ccc(-c3ccccc3)cc2)NC(=O)[C@H](C(C)C)NC(=O)[C@H](Cc2c[nH]c3ccccc23)NC(=O)[C@H](CC(=O)O)NC(=O)[C@H](Cc2ccc(O)cc2)NC(=O)[C@H](Cc2ccccc2)NC(=O)CSC[C@@H](C(=O)NCC(N)=O)NC(=O)[C@H](CO)NC(=O)[C@H](C(C)C)NC1=O [Example 1243] ({CH2CO}-FYDWV[Bip][Orn][NMeA][NMeF]RLVSCG-NH2; thioether N-14)", "reported.measurement": 0.06}
{"compound": "CC(C)C[C@@H]1NC(=O)[C@H](Cc2c[nH]c3ccccc23)NC(=O)[C@H](CC(=O)O)NC(=O)[C@H](Cc2ccc(O)cc2)NC(=O)[C@H](Cc2ccccc2)NC(=O)CSC[C@@H](C(=O)NC2(C(N)=O)CC2)NC(=O)[C@H](CO)NC(=O)[C@H](C(C)C)NC(=O)[C@H](CC(C)C)NC(=O)[C@H](CC(N)=O)NC(=O)CN(C)C(=O)[C@H](C)N(C)C(=O)[C@H](C(C)C)NC(=O)[C@H](Cc2ccc(-c3ccccc3)cc2)NC1=O [Example 1056] ({CH2CO}-FYDWL[Bip]V[NMeA][Sar]NLVSC[Ac3c]-NH2; thioether N-14)", "reported.measurement": 0.13}
{"compound": "CC(C)C[C@@H]1NC(=O)[C@H](CCCNC(=N)N)NC(=O)[C@H](Cc2ccccc2)N(C)C(=O)[C@H](C)N(C)C(=O)[C@H](CCCNC(N)=O)NC(=O)[C@H](Cc2ccc(-c3ccccc3)cc2)NC(=O)[C@H](C(C)C)NC(=O)[C@H](Cc2c[nH]c3ccccc23)NC(=O)[C@H](CC(=O)O)NC(=O)[C@H](Cc2ccc(O)cc2)NC(=O)[C@H](CC(N)=O)NC(=O)CSC[C@@H](C(=O)NCC(N)=O)NC(=O)[C@H](CO)NC(=O)[C@H](C(C)C)NC1=O [Example 1381] ({CH2CO}-NYDWV[Bip][Cit][NMeA][NMeF]RLVSCG-NH2; thioether N-14)", "reported.measurement": 0.16}
{"compound": "CC(C)C[C@@H]1NC(=O)[C@H](Cc2c[nH]c3ccccc23)NC(=O)[C@H](CC(=O)O)NC(=O)[C@H](Cc2ccc(O)cc2)NC(=O)[C@H](Cc2ccccc2)NC(=O)CSC[C@@H](C(=O)N[C@@H](C)C(N)=O)NC(=O)[C@H](CO)NC(=O)[C@H](C(C)C)NC(=O)[C@H](CC(C)C)NC(=O)[C@H](CCCCN)NC(=O)[C@H]2CCCN2C(=O)[C@H](C)N(C)C(=O)[C@H](CCC(=O)O)NC(=O)[C@H](Cc2ccc(-c3ccccc3)cc2)NC1=O [Example 1036] ({CH2CO}-FYDWL[Bip]E[NMeA][dP]KLVSCA-NH2; thioether N-14)", "reported.measurement": 0.06}
